Where do the numbers come from? From patent US20210147455A1.

Listed here: items and their measured Content.
Assay: Stability experiments under 25° C.±2° C. and 65% R.H±5% R.H
Details: month 0; 25° C./65% R.H

| Compound | Unit of measure | Content |
| --- | --- | --- |
| CC[C@@H]([C@H](C)OP(=O)(O)O)n1ncn(-c2ccc(N3CCN(c4ccc(OC[C@@H]5CO[C@@](Cn6cncn6)(c6ccc(F)cc6F)C5)cc4)CC3)cc2)c1=O [Example 1, Posaconazole Phosphate Monocholinate] | % | 99.87 |
| CC[C@@H]([C@H](C)OP(=O)(O)O)n1ncn(-c2ccc(N3CCN(c4ccc(OC[C@@H]5CO[C@@](Cn6cncn6)(c6ccc(F)cc6F)C5)cc4)CC3)cc2)c1=O.CNC[C@H](O)[C@@H](O)[C@H](O)[C@H](O)CO | % | 99.87 |
